# credit: the supplement of paper PMC5762512

test system: PER-712; experiment: IC50 cell viability (Alamar Blue, 96 h)
# IC50 cell viability listing for each entry below
PROPERTY: IC50 cell viability (nM)

[[record]]
molecule = "Cc1sc2c(c1C)C(c1ccc(Cl)cc1)=N[C@@H](CC(=O)Nc1ccc(O)cc1)c1nnc(C)n1-2 [OTX-015]"
reading_qualifier = "="
reported = 939

[[record]]
molecule = "COc1cc(Nc2ncc3c(n2)-c2ccc(Cl)cc2C(c2c(F)cccc2OC)=NC3)ccc1C(=O)O [Alisertib]"
reading_qualifier = "="
reported = 306

[[record]]
molecule = "CC[C@@]1([C@@H]2O[C@@H]([C@H]3O[C@@](O)(CO)[C@H](C)C[C@@H]3C)C[C@@H]2C)CC[C@H]([C@]2(C)CC[C@]3(C[C@H](O)[C@@H](C)[C@@H]([C@@H](C)[C@@H](OC)[C@H](C)C(=O)O)O3)O2)O1 [Monensin]"
reading_qualifier = "="
reported = 7480

[[record]]
molecule = "C#Cc1cccc(Nc2ncnc3cc(OCCOC)c(OCCOC)cc23)c1 [Erlotinib]"
reading_qualifier = ">"
reported = 10000

[[record]]
molecule = "CN1CC[C@H](c2c(O)cc(O)c3c(=O)cc(-c4ccccc4Cl)oc23)[C@H](O)C1 [Flavopiridol]"
reading_qualifier = "="
reported = 82.5

[[record]]
molecule = "COc1cc2c(cc1-c1c(C)noc1C)ncc1[nH]c(=O)n([C@H](C)c3ccccn3)c12 [I-BET 151]"
reading_qualifier = "="
reported = 1940

[[record]]
molecule = "CCCOc1ccn2c(C(C)=O)cc(-c3ccccc3S(C)(=O)=O)c2c1 [GSK-2801]"
reading_qualifier = ">"
reported = 10000

[[record]]
molecule = "CC[C@]1(O)C[C@H]2CN(CCc3c([nH]c4ccccc34)[C@@](C(=O)OC)(c3cc4c(cc3OC)N(C=O)[C@H]3[C@@](O)(C(=O)OC)[C@H](OC(C)=O)[C@]5(CC)C=CCN6CC[C@]43[C@@H]65)C2)C1 [Vincristine]"
reading_qualifier = "="
reported = 8.68

[[record]]
molecule = "CC(=O)O[C@@]12CO[C@@H]1C[C@H](O)[C@@]1(C)C(=O)[C@H](O)C3=C(C)[C@@H](OC(=O)[C@H](O)[C@@H](NC(=O)OC(C)(C)C)c4ccccc4)C[C@@](O)([C@@H](OC(=O)c4ccccc4)[C@H]21)C3(C)C [Docetaxel]"
reading_qualifier = "="
reported = 3.2

[[record]]
molecule = "COc1cc2ncnc(Nc3ccc(F)c(Cl)c3)c2cc1OCCCN1CCOCC1 [Gefitinib]"
reading_qualifier = ">"
reported = 10000

[[record]]
molecule = "C/C(=C\\c1csc(C)n1)[C@@H]1C[C@@H]2O[C@]2(C)CCC[C@H](C)[C@H](O)[C@@H](C)C(=O)C(C)(C)[C@@H](O)CC(=O)O1 [Epothilone B]"
reading_qualifier = "<"
reported = 2.5

[[record]]
molecule = "COc1ccccc1S(=O)(=O)Nc1ccc2c(c1)CN(C)C(=O)N2 [PFI-1]"
reading_qualifier = "="
reported = 1350

[[record]]
molecule = "COc1cccc2c1C(=O)c1c(O)c3c(c(O)c1C2=O)C[C@@](O)(C(C)=O)C[C@@H]3O[C@H]1C[C@H](N)[C@H](O)[C@H](C)O1 [Daunorubicin]"
reading_qualifier = "="
reported = 384

[[record]]
molecule = "CN(Cc1cnc2nc(N)nc(N)c2n1)c1ccc(C(=O)N[C@@H](CCC(=O)O)C(=O)O)cc1 [Methotrexate]"
reading_qualifier = "="
reported = 132

[[record]]
molecule = "O=C1c2c(O)ccc(O)c2C(=O)c2c(NCCNCCO)ccc(NCCNCCO)c21 [Mitoxantrone]"
reading_qualifier = "="
reported = 570

[[record]]
molecule = "C[C@H]1O[C@@H](O[C@H]2[C@@H](O)C[C@H](O[C@H]3[C@@H](O)C[C@H](O[C@H]4CC[C@@]5(C)[C@H](CC[C@@H]6[C@@H]5C[C@@H](O)[C@]5(C)[C@@H](C7=CC(=O)OC7)CC[C@]65O)C4)O[C@@H]3C)O[C@@H]2C)C[C@H](O)[C@@H]1O [Digoxin]"
reading_qualifier = "="
reported = 299

[[record]]
molecule = "CCN(CCCOc1ccc2c(Nc3cc(CC(=O)Nc4cccc(F)c4)[nH]n3)ncnc2c1)CCOP(=O)(O)O [Barasertib]"
reading_qualifier = ">"
reported = 10000

[[record]]
molecule = "Cc1csc(-c2nnc(Nc3ccc(Oc4ncccc4-c4ccnc(N)n4)cc3)c3ccccc23)c1 [AMG-900]"
reading_qualifier = ">"
reported = 10000

[[record]]
molecule = "CC[C@@]1(O)C(=O)OCc2c1cc1n(c2=O)Cc2cc3c(CN(C)C)c(O)ccc3nc2-1 [Topotecan]"
reading_qualifier = "="
reported = 243

[[record]]
molecule = "O=C(CCCCCCC(=O)Nc1ccccc1)NO [Vorinostat]"
reading_qualifier = "="
reported = 3450

[[record]]
molecule = "Nc1ccn([C@@H]2O[C@H](CO)[C@@H](O)C2(F)F)c(=O)n1 [Gemcitabine]"
reading_qualifier = "="
reported = 49.2

[[record]]
molecule = "Cc1cc(/C=C/c2ccc3cc(N(C)C)ccc3[n+]2C)c(C)n1-c1ccccc1 [Pyrvinium pamoate]"
reading_qualifier = "="
reported = 277


====

system: PER-403; experiment: IC50 cell viability (Alamar Blue, 96 h)
PROPERTY: IC50 cell viability (nM)

[[record]]
compound = "CC[C@@]1([C@@H]2O[C@@H]([C@H]3O[C@@](O)(CO)[C@H](C)C[C@@H]3C)C[C@@H]2C)CC[C@H]([C@]2(C)CC[C@]3(C[C@H](O)[C@@H](C)[C@@H]([C@@H](C)[C@@H](OC)[C@H](C)C(=O)O)O3)O2)O1 [Monensin]"
subject_of_test = "PER-403"
reading_qualifier = "="
reported = 5580

[[record]]
compound = "CN1CC[C@H](c2c(O)cc(O)c3c(=O)cc(-c4ccccc4Cl)oc23)[C@H](O)C1 [Flavopiridol]"
subject_of_test = "PER-403"
reading_qualifier = "="
reported = 46.6

[[record]]
compound = "Cc1sc2c(c1C)C(c1ccc(Cl)cc1)=N[C@@H](CC(=O)Nc1ccc(O)cc1)c1nnc(C)n1-2 [OTX-015]"
subject_of_test = "PER-403"
reading_qualifier = "="
reported = 42.6

[[record]]
compound = "CC(=O)O[C@@]12CO[C@@H]1C[C@H](O)[C@@]1(C)C(=O)[C@H](O)C3=C(C)[C@@H](OC(=O)[C@H](O)[C@@H](NC(=O)OC(C)(C)C)c4ccccc4)C[C@@](O)([C@@H](OC(=O)c4ccccc4)[C@H]21)C3(C)C [Docetaxel]"
subject_of_test = "PER-403"
reading_qualifier = "<"
reported = 2.5

[[record]]
compound = "COc1cc2ncnc(Nc3ccc(F)c(Cl)c3)c2cc1OCCCN1CCOCC1 [Gefitinib]"
subject_of_test = "PER-403"
reading_qualifier = ">"
reported = 10000

[[record]]
compound = "O=C1c2c(O)ccc(O)c2C(=O)c2c(NCCNCCO)ccc(NCCNCCO)c21 [Mitoxantrone]"
subject_of_test = "PER-403"
reading_qualifier = "="
reported = 5.31

[[record]]
compound = "C#Cc1cccc(Nc2ncnc3cc(OCCOC)c(OCCOC)cc23)c1 [Erlotinib]"
subject_of_test = "PER-403"
reading_qualifier = "="
reported = 8770

[[record]]
compound = "COc1cc(Nc2ncc3c(n2)-c2ccc(Cl)cc2C(c2c(F)cccc2OC)=NC3)ccc1C(=O)O [Alisertib]"
subject_of_test = "PER-403"
reading_qualifier = "="
reported = 38.1

[[record]]
compound = "COc1cccc2c1C(=O)c1c(O)c3c(c(O)c1C2=O)C[C@@](O)(C(C)=O)C[C@@H]3O[C@H]1C[C@H](N)[C@H](O)[C@H](C)O1 [Daunorubicin]"
subject_of_test = "PER-403"
reading_qualifier = "="
reported = 14.9

[[record]]
compound = "COc1ccccc1S(=O)(=O)Nc1ccc2c(c1)CN(C)C(=O)N2 [PFI-1]"
subject_of_test = "PER-403"
reading_qualifier = "="
reported = 623

[[record]]
compound = "O=C(CCCCCCC(=O)Nc1ccccc1)NO [Vorinostat]"
subject_of_test = "PER-403"
reading_qualifier = "="
reported = 732

[[record]]
compound = "C[C@H]1O[C@@H](O[C@H]2[C@@H](O)C[C@H](O[C@H]3[C@@H](O)C[C@H](O[C@H]4CC[C@@]5(C)[C@H](CC[C@@H]6[C@@H]5C[C@@H](O)[C@]5(C)[C@@H](C7=CC(=O)OC7)CC[C@]65O)C4)O[C@@H]3C)O[C@@H]2C)C[C@H](O)[C@@H]1O [Digoxin]"
subject_of_test = "PER-403"
reading_qualifier = "="
reported = 57.7

[[record]]
compound = "Nc1ccn([C@@H]2O[C@H](CO)[C@@H](O)C2(F)F)c(=O)n1 [Gemcitabine]"
subject_of_test = "PER-403"
reading_qualifier = "="
reported = 4.92

[[record]]
compound = "C/C(=C\\c1csc(C)n1)[C@@H]1C[C@@H]2O[C@]2(C)CCC[C@H](C)[C@H](O)[C@@H](C)C(=O)C(C)(C)[C@@H](O)CC(=O)O1 [Epothilone B]"
subject_of_test = "PER-403"
reading_qualifier = "<"
reported = 2.5

[[record]]
compound = "Cc1csc(-c2nnc(Nc3ccc(Oc4ncccc4-c4ccnc(N)n4)cc3)c3ccccc23)c1 [AMG-900]"
subject_of_test = "PER-403"
reading_qualifier = "<"
reported = 2.5

